Values from paper PMC5706701

Would you kindly list Z-score for each of these molecules?
# test_target: Human IP6K1 (Homo sapiens, UniProt Q92551)
# Construct: GST (N, cleaved yes); made in house; host or cells: C43 E. coli, pGEX-6P-2
# Sequence (Q92551 whole entry): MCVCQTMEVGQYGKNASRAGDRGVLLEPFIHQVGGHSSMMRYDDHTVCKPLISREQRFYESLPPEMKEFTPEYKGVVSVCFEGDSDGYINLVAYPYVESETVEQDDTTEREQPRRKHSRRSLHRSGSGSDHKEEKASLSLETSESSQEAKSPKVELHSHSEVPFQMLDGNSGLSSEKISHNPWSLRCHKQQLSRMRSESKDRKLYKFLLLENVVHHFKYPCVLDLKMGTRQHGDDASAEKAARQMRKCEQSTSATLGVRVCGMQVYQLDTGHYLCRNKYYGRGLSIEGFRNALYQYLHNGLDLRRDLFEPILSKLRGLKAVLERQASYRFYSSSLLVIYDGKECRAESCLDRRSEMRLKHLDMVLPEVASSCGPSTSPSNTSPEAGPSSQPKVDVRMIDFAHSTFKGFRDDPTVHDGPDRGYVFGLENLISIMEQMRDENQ
# assay_name: IP6K1 high-throughput screen of the Sigma LOPAC (ADP-Glo Max, single point);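 also: final compound concentration 10µM in 5% DMSO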
# Type: biochemical
# assay_context: Sigma LOPAC single-point screen; Z-score from plate average and StDev
Structures can show the parent of a compound that is named as a salt.
The answer should be a number; do not append a unit.

**Query** Please tell me: Z-score of O=c1n(CCCN2CCN(c3cccc(Cl)c3)CC2)nc2ccccn12 [Trazodone hydrochloride] , system Human IP6K1 (Homo sapiens, UniProt Q92551)?
**Result** 0.4061

**Query** What measured Z-score is associated with C[C@]12CCC(=O)C=C1CC[C@@H]1[C@@H]2[C@@H](O)C[C@@]2(C)[C@H]1CC[C@]2(O)C(=O)COC(=O)CCC(=O)[O-].[Na+] [Hydrocortisone 21-hemisuccinate sodium] on Human IP6K1 (Homo sapiens, UniProt Q92551)?
**Result** 0.5122

**Query** Provide value of Z-score for this record tested with Human IP6K1 (Homo sapiens, UniProt Q92551): CCCCC#Cc1nc(N)c2ncn([C@@H]3O[C@H](C(=O)NCC)[C@@H](O)[C@H]3O)c2n1
**Result** 0.4807

**Query** Hello, I am looking for reported Z-score with Human IP6K1 (Homo sapiens, UniProt Q92551) for COc1cccc(OC)c1OCCNCC1COc2ccccc2O1.Cl (stereo not drawn) [WB-4101 hydrochloride] . Could you help?
**Result** 0.6298

**Query** Provide the documented Z-score with Human IP6K1 (Homo sapiens, UniProt Q92551) as the system for C=C[C@@]1(C)CC(=O)[C@]2(O)[C@@]3(C)[C@@H](O)CCC(C)(C)[C@@H]3[C@H](O)[C@H](OC(C)=O)[C@@]2(C)O1
**Result** 1.307

**Query** Form field - read-out: Z-score; system: Human IP6K1 (Homo sapiens, UniProt Q92551); submitted item: Cl.Cl.Clc1cccc(N2CCNCC2)c1
**Result** 0.4195

**Query** Value wanted: Z-score (Human IP6K1 (Homo sapiens, UniProt Q92551)) of entry O=C(O)/C=C\C(=O)O.c1cnc(N2CCN(Cc3ccc4c(c3)OCO4)CC2)nc1 [Piribedil maleate]
**Result** 1.266

**Query** Record lookup: for Human IP6K1 (Homo sapiens, UniProt Q92551), what Z-score belongs to CC[C@@H]1C(=O)OC[C@@H]1Cc1cncn1C [Pilocarpine nitrate] ?
**Result** 0.8967

**Query** Test system Human IP6K1 (Homo sapiens, UniProt Q92551); read-out Z-score; what value for FC(F)(F)c1ccccc1-n1ccnc1 [1-[2-(Trifluoromethyl)phenyl]imidazole] ?
**Result** 0.8129

**Query** Hello, I am looking for reported Z-score with Human IP6K1 (Homo sapiens, UniProt Q92551) for OC[C@H]1O[C@@H](n2cnc3c(NC4CCCCC4)ncnc32)[C@H](O)[C@@H]1O . Could you help?
**Result** 1.07

**Query** API: value(readout= Z-score, system= Human IP6K1 (Homo sapiens, UniProt Q92551), query= Cn1c(=O)c2[nH]c(C3CCCC3)nc2n(C)c1=O )
**Result** 0.6328

**Query** Z-score of NC(=O)C1=CN([C@@H]2O[C@H](COP(=O)([O-])OP(=O)([O-])OC[C@H]3O[C@@H](n4cnc5c(N)ncnc54)[C@H](OP(=O)([O-])[O-])[C@@H]3O)[C@@H](O)[C@H]2O)C=CC1.[Na+].[Na+].[Na+].[Na+] [NADPH tetrasodium] on Human IP6K1 (Homo sapiens, UniProt Q92551)?
**Result** 0.584

**Query** Please provide the recorded Z-score for CCCCNc1c(C(=O)OCC)c(C)nc2c1cnn2CC [Tracazolate] , tested on Human IP6K1 (Homo sapiens, UniProt Q92551).
**Result** 0.6213

**Query** For Human IP6K1 (Homo sapiens, UniProt Q92551), provide Z-score of CC(N)=O [Acetamide] please.
**Result** 0.9467

**Query** What value of Z-score on Human IP6K1 (Homo sapiens, UniProt Q92551) does N=C(NCCC[C@H](N)C(=O)O)N[N+](=O)[O-] have?
**Result** 0.5005
